# Species on record: Cavia porcellus
# Measurement protocol: Effective concentration for delaying effective refractory period (ERP) 10 ms in guinea pig; N means No effect at 10E-5 M
# Assay type: functional
Endpoint: N

> print(dat)
                            chemical.smiles     result
1  COc1ccc(CN(CCc2ccc(NS(C)(=O)=O)cc2)C(C)=O)cc1  No effect
2  C=CCN(CCOc1cccc2ccccc12)CCc1ccc(N(S(C)(=O)=O)S(C)(=O)=O)cc1  No effect
3  CS(=O)(=O)Nc1ccc(CCN(CCOc2cccc3ccccc23)Cc2ccccc2)cc1  No effect
